assay: E. coli growth modulation, two-sided OD650, primary screen, E. coli filamentation project, strain DRC41, 24 h (AID 1093); conditions: OD650, 24 h, higher = more signal, called active from +8 up or from −8 down;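 also: MC1000 strain lacking acrAB efflux and sulA so SOS filamentation is blocked; test concentration not given here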
Active and inactive are the calls of the source.
Reported z-score values follow for various molecules

{"molecule": "CCCNC(=O)[C@@]1(Sc2ccc(C)cc2)CC(=O)N(C(C)C)[C@@H]1c1ccc(CO)cc1I", "z-score": "-0.157 (inactive)"}
{"molecule": "CN1C(=O)C2C=CC(C(O)c3cc(C(F)(F)F)cc(C(F)(F)F)c3)N(Nc3ccccc3)C2C1=O (centres undefined)", "z-score": "-0.565 (inactive)"}
{"molecule": "CC(C)N1CC=CC23O[C@@H]4/C=C\\CCCOC(=O)C4[C@H]2C(=O)N(CCCCCCO)[C@@H]3C1=O (some centres undefined)", "z-score": "2 (inactive)"}
{"molecule": "O=C1C[C@@](C(=O)NCC(F)(F)F)(c2ccc([N+](=O)[O-])cc2)[C@@H](c2ccc(CO)cc2)N1CC12CC3CC(CC(C3)C1)C2", "z-score": "-0.49 (inactive)"}
{"molecule": "C=C(C)C1CCC(C(O)C2C=CC3C(=O)N(C)C(=O)C3N2Nc2cc(OC)c(OC)c(OC)c2)CC1 (centres undefined)", "z-score": "-1.37 (inactive)"}
{"molecule": "CC1CC/C=C\\[C@H]2OC34C=CCN(CCN5CCOCC5)C(=O)[C@H]3N(C(C)CO)C(=O)[C@@H]4C2C(=O)O1 (some centres undefined)", "z-score": "-0.476 (inactive)"}
{"molecule": "CO[C@H]1O[C@H](CO)[C@@H](OC(=O)CCc2ccccc2)[C@H](OC(=O)c2cc3ccccc3[nH]2)[C@H]1OC(=O)c1cc2ccccc2[nH]1", "z-score": "1.5 (inactive)"}
{"molecule": "CC(=O)n1cc(C(O)C2C=CC3C(=O)N(c4ccccc4)C(=O)C3N2Nc2ccc(C(C)C)cc2)c2ccccc21 (centres undefined)", "z-score": "-0.811 (inactive)"}
{"molecule": "O=C1O[C@H](c2ccccc2)[C@H](c2ccccc2)N2[C@H]1[C@@H](C(=O)N1CCCCCCC1)[C@]1(C(=O)Nc3ccc(C#CC4(O)CCCCCC4)cc31)[C@H]2c1ccc(O)cc1", "z-score": "0.408 (inactive)"}
{"molecule": "Cc1ccccc1C(O)C1C=CC2C(=O)N(c3ccccc3)C(=O)C2N1Nc1ccc([N+](=O)[O-])cc1 (centres undefined)", "z-score": "0.13 (inactive)"}
{"molecule": "C=C[C@@H](OC)[C@H](OC(=O)Nc1ccc(SC)cc1)c1ccc(OCCO)cc1", "z-score": "0.0144 (inactive)"}
{"molecule": "COc1ccc(C#Cc2ccc3c(c2)[C@]2(C(=O)N3)[C@H](C(=O)N3CCCCCCC3)[C@H]3C(=O)O[C@H](c4ccccc4)[C@H](c4ccccc4)N3[C@@H]2c2ccc(O)cc2)cc1", "z-score": "0.209 (inactive)"}
{"molecule": "O=C1C[C@@](C(=O)NCc2ccccc2)(c2ccc([N+](=O)[O-])cc2)[C@@H](c2ccc(CO)cc2I)N1CC12CC3CC(CC(C3)C1)C2", "z-score": "-0.343 (inactive)"}
{"molecule": "COC(=O)C(CC#Cc1ccc2c(c1)[C@]1(C(=O)N2)[C@H](C(=O)Nc2nc3ccccc3s2)[C@H]2C(=O)O[C@H](c3ccccc3)[C@H](c3ccccc3)N2[C@@H]1c1ccc(OCCO)cc1)C(=O)OC", "z-score": "2.96 (inactive)"}

Each recorded value in this set is attributed to PubChem BioAssay.
